KIM127 (Expression relative to IgG4) listing for selected binders.
target: human Mac-1 (integrin αMβ2, CD11b/CD18) (human, UniProt P11215 17-1152; P05107 23-769); test: flow cytometry, HEK293/Mac-1 cells, PBS/MnCl2 (Mn2+), 10 µg/ml of this antibody; binding of reporter mAb KIM127 read

Some solved cases for reference:
| BINDER | RECORDED_VALUE |
| --- | --- |
| anti-Mac-1 antibody clone 28E07-HH (antibody, human IgG4, V domains shown) VH: QVQLVQSGAEVKKPGASVKVSCKASGYSFTDYNMNWVRQAPGQGLEWMGEINPGYGTSRYNQKFKDRVTMTRDTSISTAYMELSRLRSDDTAVYYCARADVDYGDVMDYWGQGTLVTVSS VL: EIVLTQSPATLSLSPGERATLSCSASSSVSYMHWYQQKPGQAPRLLIYDTSKLASGIPARFSGSGSGTDFTLTISSLEPEDFAVYYCQQWSSNPPTFGQGTKLEIK | 0.87 relative to IgG4 |
| anti-Mac-1 antibody clone DF4-25 (antibody, human IgG4, V domains shown) VH: EVQLVESGGGLVQPGGSLRLSCAASGFTFKDYWLSWVRQAPGKGLEWVSIINYGGSETYYADSVKGRFTISRDNSKNTLYLQMNSLRAEDTAVYYCARTQTSYVMDYWGQGTLVTVSS VL: DIQMTQSPSSLSASVGDRVTITCRASQSVRSGLNWYQQKPGKAPKLLIYAASSLQSGVPRRFSGSGSGTDFTLTISSLQPEDFATYYCMQSHSWPLTFGQGTKVEIK | 1.75 relative to IgG4 |

GET /value?item= anti-Mac-1 antibody clone 27A06 (antibody, human IgG4, V domains shown) VH: QVKLQQSGPELVTPGASVKISCKPSGYSFTDYNMNWVKQSNGKSLEWIGEINPNYGTTRHNQKFKGKASLTVDQSSSTAYMQLISLTSEDSAVYYCARTYDYDEDAFAYWGQGTTVTVSS VL: DIELTQSPAIMSASPGEKVTMTCSASSSVSYMHWYQQKSDTSPKRWIYDTSKLASGVPARFSGSGSGTSYSLTISSMEAEDAATYYCQQWSSNPPTFGAGTKLELK &field=KIM127 (Expression relative to IgG4) returns 0.85 relative to IgG4
